Molecular target: UniProt P21761
Assay: Displacement of [3H]-1-MeHis-TRH from mouse TRH-R1 expressed in HEK293 cells incubated up to 4 hrs by scintillation counting method
ENDPOINT_NAME: IC50

// solved cases for IC50 follow
CCCc1nc(C[C@H](NC(=O)c2cnccn2)C(=O)N2CCC[C@H]2C(N)=O)c[nH]1 = > 50 µM
NC(=O)[C@@H]1CCCN1C(=O)[C@H](Cc1nc[nH]c1Cl)NC(=O)c1cnccn1 = > 50 µM
NC(=O)[C@@H]1CCCN1C(=O)[C@H](Cc1nc(I)[nH]c1I)NC(=O)c1cnccn1 = > 50 µM
CCCc1nc(C[C@H](NC(=O)c2cnc(C)cn2)C(=O)N2CCC[C@H]2C(N)=O)c[nH]1 = > 50 µM
CC(C)c1nc(C[C@H](NC(=O)C2CCCCN2)C(=O)N2CCC[C@H]2C(N)=O)c[nH]1 (single isomer, unassigned) = > 50 µM

Consider the additional compound presented here.
Problem: Please supply the value of reported IC50 for the item `Cc1cnc(C(=O)N[C@@H](Cc2nc[nH]c2Br)C(=O)N2CCC[C@H]2C(N)=O)cn1`
Result: > 50 µM

====

Tested on: Mus musculus
Experiment: Reduction in pentobarbital-induced sleeping time in Swiss mouse at 10 umol/kg, iv
Format: functional
Recorded inhibition in vivo at 10 µmol/kg values for a group of molecules are listed next.
The response must be a number in % with no trailing unit.

CCCc1nc(C[C@H](NC(=O)c2cnccn2)C(=O)N2CCC[C@H]2C(N)=O)c[nH]1 = 63.6
NC(=O)[C@@H]1CCCN1C(=O)[C@H](Cc1nc[nH]c1Br)NC(=O)c1cnccn1 = 32.8
CCCc1nc(C[C@H](NC(=O)c2nccnc2N)C(=O)N2CCC[C@H]2C(N)=O)c[nH]1 = 52.2

Problem: State inhibition in vivo at 10 µmol/kg (Mus musculus) of CC(C)c1nc(C[C@H](NC(=O)C2CCCCN2)C(=O)N2CCC[C@H]2C(N)=O)c[nH]1 (single isomer, unassigned) .
Result: 42.7

Problem: State inhibition in vivo at 10 µmol/kg (Mus musculus) of `NC(=O)[C@@H]1CCCN1C(=O)[C@H](Cc1nc(Br)[nH]c1Br)NC(=O)c1cnccn1` .
Result: 74.8

Problem: State inhibition in vivo at 10 µmol/kg (Mus musculus) of `NC(=O)[C@@H]1CCCN1C(=O)[C@H](Cc1nc(Br)[nH]c1Br)NC(=O)c1nccnc1N` .
Result: 12.2

====

Biological target: UniProt:Q9ERT1
Sequence (Q9ERT1 whole entry): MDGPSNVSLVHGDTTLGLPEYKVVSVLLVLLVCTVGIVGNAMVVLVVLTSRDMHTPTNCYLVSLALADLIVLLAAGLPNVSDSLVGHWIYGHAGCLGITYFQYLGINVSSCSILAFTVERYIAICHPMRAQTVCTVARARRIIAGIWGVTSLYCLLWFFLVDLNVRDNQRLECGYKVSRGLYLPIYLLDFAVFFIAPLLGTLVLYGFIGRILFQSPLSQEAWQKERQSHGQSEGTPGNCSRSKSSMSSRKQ
Assay: Agonist activity at mouse TRH-R2 expressed in HEK293 cells assessed as induction of changes in intracellular Ca2+ level by FLIPR method
ENDPOINT_NAME: EC50 (nM)

I = NC(=O)[C@@H]1CCCN1C(=O)[C@H](Cc1nc[nH]c1Cl)NC(=O)c1cnccn1
II = Cn1cnc(C[C@H](NC(=O)c2cnccn2)C(=O)N2CCC[C@H]2C(N)=O)c1Br
III = CCCc1nc(C[C@H](NC(=O)c2cnccn2)C(=O)N2CCC[C@H]2C(N)=O)c[nH]1
IV = CCCc1nc(C[C@H](NC(=O)c2nccnc2N)C(=O)N2CCC[C@H]2C(N)=O)c[nH]1
V = CCCc1nc(C[C@H](NC(=O)C2CCCCN2)C(=O)N2CCC[C@H]2C(N)=O)c[nH]1 (single isomer, unassigned)
Problem: Which order do these items fall in when sorted by EC50 from largest to smallest? I'd appreciate it if you listed the labels in the requested order.
Result: I, IV, III, II, V

====

System: Mus musculus
Test: Reduction in pentobarbital-induced sleeping time in Swiss mouse at 10 umol/kg, iv
Type: functional
ENDPOINT_NAME: inhibition in vivo at 10 µmol/kg (%)
The response must be a number in % with no trailing unit.

Problem: Please supply the value of reported inhibition in vivo at 10 µmol/kg for the item `Cc1cnc(C(=O)N[C@@H](Cc2nc[nH]c2Br)C(=O)N2CCC[C@H]2C(N)=O)cn1`
Result: 23.2

Problem: Please supply the value of reported inhibition in vivo at 10 µmol/kg for the item `Cc1cnc(C(=O)N[C@@H](Cc2nc(I)n(Cc3ccccc3)c2I)C(=O)N2CCC[C@H]2C(N)=O)cn1`
Result: 50.1

Problem: Please supply the value of reported inhibition in vivo at 10 µmol/kg for the item CCCc1nc(C[C@H](NC(=O)C2CCCCN2)C(=O)N2CCC[C@H]2C(N)=O)c[nH]1 (single isomer, unassigned)
Result: 67.4

Problem: Please supply the value of reported inhibition in vivo at 10 µmol/kg for the item `CCn1c(I)nc(C[C@H](NC(=O)c2cnccn2)C(=O)N2CCC[C@H]2C(N)=O)c1I`
Result: 1.8

====

System: HEK293
Test: Selectivity index, ratio of EC50 for agonist activity at mouse TRH-R1 expressed in HEK293 cells to EC50 for agonist activity at mouse TRH-R2 expressed in HEK293 cells
Assay type: cell-based
ENDPOINT_NAME: Ratio EC50
Just the number, please.

// solved cases for Ratio EC50 follow
CCCc1nc(C[C@H](NC(=O)c2cnccn2)C(=O)N2CCC[C@H]2C(N)=O)c[nH]1 = 2.5
CCCc1nc(C[C@H](NC(=O)C2CCCCN2)C(=O)N2CCC[C@H]2C(N)=O)c[nH]1 (single isomer, unassigned) = 235
Cc1cnc(C(=O)N[C@@H](Cc2nc[nH]c2Br)C(=O)N2CCC[C@H]2C(N)=O)cn1 = 12.4

Consider the additional compound presented here.
Problem: Please supply the value of reported Ratio EC50 for the item `Cn1cnc(C[C@H](NC(=O)c2cnccn2)C(=O)N2CCC[C@H]2C(N)=O)c1Br`
Result: 11.3

====

Target: Thyrotropin-releasing hormone receptor (Mus musculus, UniProt P21761)
Sequence (P21761 whole entry): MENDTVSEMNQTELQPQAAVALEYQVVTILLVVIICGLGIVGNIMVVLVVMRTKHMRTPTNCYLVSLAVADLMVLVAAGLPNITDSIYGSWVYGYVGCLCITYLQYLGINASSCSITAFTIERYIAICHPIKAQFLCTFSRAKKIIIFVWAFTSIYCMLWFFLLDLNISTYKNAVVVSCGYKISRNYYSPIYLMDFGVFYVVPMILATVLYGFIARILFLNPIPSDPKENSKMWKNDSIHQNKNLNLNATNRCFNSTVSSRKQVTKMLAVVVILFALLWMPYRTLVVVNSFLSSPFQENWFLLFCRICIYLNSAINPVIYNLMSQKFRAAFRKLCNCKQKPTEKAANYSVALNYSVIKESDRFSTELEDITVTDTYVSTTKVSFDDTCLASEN
Assay: Agonist activity at mouse TRH-R1 expressed in HEK293 cells assessed as induction of changes in intracellular Ca2+ level by FLIPR method
Assay type: functional, cell-based
pEC50: −log10 of the molar value.
ENDPOINT_NAME: pEC50

// solved cases for pEC50 follow
Cn1cnc(C[C@H](NC(=O)c2cnccn2)C(=O)N2CCC[C@H]2C(N)=O)c1Br = 6.47
NC(=O)[C@@H]1CCCN1C(=O)[C@H](Cc1nc[nH]c1Br)NC(=O)c1cnccn1 = 5.40
NC(=O)[C@@H]1CCCN1C(=O)[C@H](Cc1nc(Br)[nH]c1Br)NC(=O)c1cnccn1 = 5.60
Cc1cnc(C(=O)N[C@@H](Cc2nc(I)n(Cc3ccccc3)c2I)C(=O)N2CCC[C@H]2C(N)=O)cn1 = 6.13

I = CCCc1nc(C[C@H](NC(=O)c2cnc(C)cn2)C(=O)N2CCC[C@H]2C(N)=O)c[nH]1
II = NC(=O)[C@@H]1CCCN1C(=O)[C@H](Cc1nc(I)[nH]c1I)NC(=O)c1cnccn1
Problem: Sort I and II by pEC50 descending and give the first. When you have decided, please share the label of that item.
Result: I
(I: 7.77, II: 4.95)

====

Assay: Half life in human plasma
Format: ADME, cell-free
ENDPOINT_NAME: half-life (min)
The response must be a number in min with no trailing unit.

Problem: Please supply the value of reported half-life for the item `NC(=O)[C@@H]1CCCN1C(=O)[C@H](Cc1cnc[nH]1)NC(=O)[C@@H]1CCC(=O)N1`
Result: 2

====

Target: Thyrotropin-releasing hormone receptor (Mus musculus)
Experiment: Agonist activity at mouse TRH-R1 expressed in HEK293 cells assessed as induction of changes in intracellular Ca2+ level by FLIPR method
Type: functional, cell-based
Settings: hek293
ENDPOINT_NAME: pEC50
Reminder that pEC50 means the negative base-10 logarithm of the concentration expressed in mol/L.

Problem: Please supply the value of reported pEC50 for the item `NC(=O)[C@@H]1CCCN1C(=O)[C@H](Cc1c[nH]cn1)NC(=O)[C@@H]1CCC(=O)N1`
Result: 9.00

====

Recorded Ratio EC50 values for a group of molecules are listed next.
Tested on: HEK293
Test: Selectivity index, ratio of EC50 for agonist activity at mouse TRH-R1 expressed in HEK293 cells to EC50 for agonist activity at mouse TRH-R2 expressed in HEK293 cells
Assay type: cell-based
Just the number, please.

// solved cases for Ratio EC50 follow
Cc1cnc(C(=O)N[C@@H](Cc2nc(Br)[nH]c2Br)C(=O)N2CCC[C@H]2C(N)=O)cn1 = 0.77
NC(=O)[C@@H]1CCCN1C(=O)[C@H](Cc1nc(Br)[nH]c1Br)NC(=O)c1nccnc1N = 4.8

Problem: Please supply the value of reported Ratio EC50 for the item `NC(=O)[C@@H]1CCCN1C(=O)[C@H](Cc1nc(I)n(Cc2ccccc2)c1I)NC(=O)c1cnccn1`
Result: 32.6

Problem: Please supply the value of reported Ratio EC50 for the item `NC(=O)[C@@H]1CCCN1C(=O)[C@H](Cc1nc[nH]c1Br)NC(=O)c1nccnc1N`
Result: 47.8

Problem: Please supply the value of reported Ratio EC50 for the item CC(C)c1nc(C[C@H](NC(=O)C2CCCCN2)C(=O)N2CCC[C@H]2C(N)=O)c[nH]1 (single isomer, unassigned)
Result: 1.3

Problem: Please supply the value of reported Ratio EC50 for the item `NC(=O)[C@@H]1CCCN1C(=O)[C@H](Cc1nc[nH]c1Cl)NC(=O)c1cnccn1`
Result: 36.5
